- Test system: Pseudomonas aeruginosa PA14 dppBCDF deletion mutant
- protocol-details: respiration area under curve with compound as sole nitrogen source, 24 h (OmniLog AUC (arbitrary units)); higher = more respiration / better utilisation as nitrogen source, active = 2000 or more; extreme values may be limits of the assay
Thanks in advance; please answer with one of these: true (1) = active, false (0) = inactive

Asked: What did the test return for CC[C@H](C)[C@H](N)C(=O)N[C@@H](CC(C)C)C(=O)O (plate: PM8) ?
Given back: false (0)

Asked: Quick one: N[C@@H](CO)C(=O)N[C@@H](Cc1ccc(O)cc1)C(=O)O (plate: PM7)
Given back: false (0)

Asked: Quick one: CC(C)C[C@H](NC(=O)[C@@H](N)CO)C(=O)O (plate: PM7)
Given back: true (1)

Asked: Quick one: CSCC[C@H](NC(=O)CN)C(=O)O (plate: PM6)
Given back: false (0)

Asked: Quick one: CSCC[C@H](NC(=O)[C@@H](N)CO)C(=O)O (plate: PM7)
Given back: false (0)

Asked: Quick one: N[C@@H](Cc1ccc(O)cc1)C(=O)N[C@@H](Cc1ccc(O)cc1)C(=O)O (plate: PM7)
Given back: true (1)

Asked: Quick one: CC[C@H](C)[C@H](N)C(=O)N[C@@H](Cc1c[nH]c2ccccc12)C(=O)O (plate: PM6)
Given back: false (0)

Asked: Quick one: CC[C@H](C)[C@H](N)C(=O)N[C@@H](CO)C(=O)O (plate: PM6)
Given back: false (0)

Asked: Quick one: CC[C@H](C)[C@H](N)C(=O)NCC(=O)O (plate: PM6)
Given back: false (0)

Asked: Quick one: CC(C)[C@H](N)C(=O)N[C@H](C(=O)O)C(C)C (plate: PM7)
Given back: false (0)
